B1: Caulobacter ParB omega fusion; a variant is named by its letters at X, in order, B8GW30 (parent)
chain: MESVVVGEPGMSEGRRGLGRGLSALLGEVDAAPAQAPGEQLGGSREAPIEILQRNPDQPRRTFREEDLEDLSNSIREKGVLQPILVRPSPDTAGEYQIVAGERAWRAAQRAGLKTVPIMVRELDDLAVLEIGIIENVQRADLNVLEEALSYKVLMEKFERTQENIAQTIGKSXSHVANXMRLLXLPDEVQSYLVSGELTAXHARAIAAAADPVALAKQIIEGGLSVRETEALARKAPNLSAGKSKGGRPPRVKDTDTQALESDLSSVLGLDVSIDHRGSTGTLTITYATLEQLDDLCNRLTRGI

Variants of: B1
Assay: one-hybrid fitness for binding NBS DNA (the Noc-binding site; scaled: cognate 1, non-cognate 0); higher = stronger binding
Conditions: with NBS DNA site
Whole data set: some 81,000 sequences, median “one-hybrid fitness for binding NBS DNA” near -0.1, cut for the highest 2% near 0.36. The sample holds the highest values, similar sequences and a random draw of the others, so the mix is not that of the screen.
Give one-hybrid fitness for binding NBS DNA for every item shown.

get_value(item= `MVEY` , readout=one-hybrid fitness for binding NBS DNA) returns ≤ 0.2

For this variant ( `QKSP` ), measured one-hybrid fitness for binding NBS DNA is ≤ 0.2

Per the record, `QKLD` has one-hybrid fitness for binding NBS DNA of ≤ 0.2

Item: `KSMR` | one-hybrid fitness for binding NBS DNA: ≤ 0.2

Sample `LFAP` ; one-hybrid fitness for binding NBS DNA observed: ≤ 0.2

Measured one-hybrid fitness for binding NBS DNA, `KRMD` : ≤ 0.2

The variant listed as `QKSS` shows one-hybrid fitness for binding NBS DNA equal to 0.449

Reported one-hybrid fitness for binding NBS DNA of `LDLL` : ≤ 0.2

one-hybrid fitness for binding NBS DNA reported for this variant `KRMR` : 0.51

response.value for `DRMT` (field: one-hybrid fitness for binding NBS DNA) = ≤ 0.2

The variant identified as `AFHM` registered its one-hybrid fitness for binding NBS DNA at ≤ 0.2
